experimentalTarget: CD206 CRD4 (Homo sapiens)
Construct: Carbohydrate recognition domain 4 of CD206
Sequence (P22897 655-778 limits assumed): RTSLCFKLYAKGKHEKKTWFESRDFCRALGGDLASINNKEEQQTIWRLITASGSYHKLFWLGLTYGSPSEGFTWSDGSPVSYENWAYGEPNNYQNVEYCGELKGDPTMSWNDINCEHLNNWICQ
assayOverview: NanoDSF thermal shift binding study, CD206 CRD4
reportedConditions: CD206 CRD4, 12 μM protein, unfolded fraction evaluated at 53 °C, Hill fit; read-out: EC50 (unfolded fraction vs TS concentration)
This section presents compounds with their documented pEC50 values.
// scale note: pEC50 = -log10(conc_M); give the bare number

compound	pEC50
[N-]=[N+]=NCCOCCOCCOCCn1cc(CO[C@H]2O[C@H](CO)[C@@H](O)[C@H](O)[C@@H]2O)nn1 [ManN3]	2.51

// query Request: pEC50, test system CD206 CRD4 (Homo sapiens), entry [N-]=[N+]=NCCOCCOCCOCCn1cc(CO[C@H]2O[C@H](CO[C@H]3O[C@H](CO)[C@@H](O)[C@H](O)[C@@H]3O)[C@@H](O)[C@H](O[C@H]3O[C@H](CO)[C@@H](O)[C@H](O)[C@@H]3O)[C@@H]2O)nn1 [Man3N3]
// result 1.83
